Target or system Adenosine receptor A2a (Homo sapiens); metric pKi; compiled from varied reports.
pKi: −log10 of the molar value.

// worked examples, pKi included
| molecule | studyTarget | reportedEndpoint | recordedResult |
| --- | --- | --- | --- |
| C=CCN1C(=O)N2CC(C)N=C2c2[nH]c(-c3cc(C)nn3C)nc21 (racemic) | Adenosine receptor A2a (Homo sapiens) | pKi | < 5.30 |
| Cc1ccc(-n2cc3c(=O)[nH]c4ccccc4c3n2)cc1 | Adenosine receptor A2a (Homo sapiens) | pKi | < 6.00 |
| COc1ccc(-c2cn3cc(C(=O)NCCc4ccc(O)cc4)cc(N)c3n2)cc1OC | Adenosine receptor A2a (Homo sapiens) | pKi | < 5.00 |
| CCCn1c(=O)c2[nH]c(-c3ccc(NC(=O)Cc4ccccc4)cc3)nc2n(CCC)c1=O | Adenosine receptor A2a (Homo sapiens) | pKi | < 6.00 |
| N=C1N(CCN2CCOCC2)C[C@@H]2Cc3ccccc3CN12 | Adenosine receptor A2a (Homo sapiens) | pKi | < 3.70 |

Bench note: what pKi did C=CCN1C(=O)N2C[C@@H](CC)N=C2c2[nH]c(-c3cc(OC)nn3C)nc21 show? < 5.30

----------
Target or system Adenosine receptor A2a (Homo sapiens, UniProt P29274); metric Ki; compiled from varied reports.

| compound | studyTarget | reportedEndpoint | recordedResult |
| --- | --- | --- | --- |
| Cc1cc(-c2nc3c([nH]2)C2=NC(C)CN2C(=O)N3Cc2ccccc2)nn1C (stereo unspecified) | Adenosine receptor A2a (Homo sapiens, UniProt P29274) | Ki | > 5 µM |
| CCCn1c(-c2cccc(OC)c2)nc2nc(C3CCCC3)[nH]c2c1=O | Adenosine receptor A2a (Homo sapiens, UniProt P29274) | Ki | ≥ 10 µM |

Bench note: what Ki did COc1ccc(-c2cn3cc(C#Cc4ccccc4)cc(N)c3n2)cc1OC show? > 10 µM

// query: CCCn1c(=O)c2[nH]c(-c3ccc(OC(C)(C)C(=O)Nc4ccc(F)cc4)cc3)cc2n(CCC)c1=O 0.017 µM

// query: CNC(=O)[C@]12C[C@@H]1[C@@H](n1cnc3c(NCc4cc(Cl)ccc4Cl)nc(Cl)nc31)[C@H](O)[C@@H]2O 1.3 µM

// query: c1ccc(-c2nnc(-c3ccccn3)[nH]2)nc1 > 10 µM

// query: Nc1nc(NC(=O)c2ccccc2)c([N+](=O)[O-])c(-c2ccco2)n1 0.308 µM

// query: CCCn1c(=O)c2[nH]c(-c3cc(C)n(CC(=O)Nc4ccc(Cl)cc4)n3)nc2n(CCC)c1=O > 1 µM

----------
Target or system Adenosine receptor A2a (Homo sapiens); metric Ki; compiled from varied reports.

| compound | Ki |
| --- | --- |
| CCCn1c(=O)c2c(nc3n2C(C)C(C)=C3)n(Cc2ccccc2)c1=O (stereo not drawn) | > 1000 nM |
| CCCn1c(=O)c2[nH]c(-c3cnn(Cc4ccc(OC)cc4)c3)nc2n(CCC)c1=O | 61 nM |

Turning now to a further compound:
Give the reported Ki for Cn1ncc2nc(N3CCN(c4ccccc4)CC3)n3nc(-c4ccco4)nc3c21 (system: Adenosine receptor A2a (Homo sapiens)). > 1000 nM

----------
Target or system UniProt P29274; metric Ki; compiled from varied reports.

// worked examples, Ki included
| smi | recordedResult |
| --- | --- |
| Nc1nc(CSc2nnc3ccccn23)nc(Nc2ccc(F)cc2)n1 | > 100 µM |
| Cc1ccc(-n2c(-c3sc(NC(=O)c4ccccc4)nc3-c3ccccc3)nc3ccccc3c2=O)cc1 | > 1 µM |

Turning now to a further molecule:
Bench note: what Ki did CCOC(=O)c1nc(N(C(=O)c2ccc(Br)cc2)C(=O)c2ccc(Br)cc2)nc2nn(C)cc12 show? > 100 µM
